All values here come from the nanobody polyreactivity screen of Harvey et al. (2022).

measurement.protocol: yeast display, Sf9 membrane polyspecificity reagent, FACS + sequencing; frameworks hold sequencing errors
parameter.measured: polyreactivity (PSR sort gate)

[
  {
    "sequence.string": "QVQLVDSGGGLVQAGGSLRLSCAASGSTFPNNAMGRYRQAPGKERELVAAITTRGGSTYYADSVKGRFTISRDNAKNTVYLQMNSLKAEDTAVYYCAKRRRSAAPKYDYWGQGTQVTVSS",
    "parameter.measured": "polyreactivity (PSR sort gate)",
    "reported": "high polyreactivity"
  },
  {
    "sequence.string": "QVQLVESGGGLVQAGGSLRLSCAASGSIFRSYAMGWYSPSPGKERELVAAITRSGGSTYYADSVKGRFTISRDNAKNTVYLQMNSLKPEDTAVYYCAAEYYSYTWGWGHGYWGQGTQVTVSS",
    "parameter.measured": "polyreactivity (PSR sort gate)",
    "reported": "high polyreactivity"
  }
]

----------
measurement.protocol: yeast display, Sf9 membrane polyspecificity reagent, FACS + sequencing; frameworks hold sequencing errors
parameter.measured: polyreactivity (PSR sort gate)

[
  {
    "sequence.string": "QVQLVESGGGLVQAGGSLRLSCAASGYTFGYYAMGWYRQAPGKERELVAAISSGGSTYYADSVKGRFTISRDNAKNTVYLQMNSLKPEDTAVYYCAVVRYLGDRGMNYWGQGTQVTVSS",
    "parameter.measured": "polyreactivity (PSR sort gate)",
    "reported": "low polyreactivity"
  },
  {
    "sequence.string": "QVQIVESGGGLVQAGGSLRLSCAASGSIFRYNAMGWYRQARGKERELVAAITSGDSTYYADSVKGRFTISRDNAKNTVYLQMNSLKPEDTAVYYCAVTTWANTQWEEYWGHGTQVTVSS",
    "parameter.measured": "polyreactivity (PSR sort gate)",
    "reported": "low polyreactivity"
  }
]

----------
measurement.protocol: yeast display, Sf9 membrane polyspecificity reagent, FACS + sequencing; frameworks hold sequencing errors
parameter.measured: polyreactivity (PSR sort gate)

Worked examples, 5 sequences total:
[
  {
    "sequence.string": "QVQLVESGGGLVQAGGSLRLSCAASGGTFRPYAMGWYRQAPGKERELVATIRSSGGRTYYADSVKGRFTISRDNAKNTVYLQMNSLKPDDTAVYYCAKRAQTYYGYDYWGQGTQVTVSS",
    "parameter.measured": "polyreactivity (PSR sort gate)",
    "reported": "high polyreactivity"
  },
  {
    "sequence.string": "QGQLVESGGGLVQAGGSRRLSCAASGFIYFNAMGWSRQAPGKEREMVASISYSGGSTYYADSVKGRFTISRDNAKNTVYLQMNSLKPEDTAVYYCAKAFIEPGYKYDSWGQGTQVTVSS",
    "parameter.measured": "polyreactivity (PSR sort gate)",
    "reported": "high polyreactivity"
  },
  {
    "sequence.string": "QVQLVESGGGLVQAGGSLRLSCAASGFTFAVYAMGWYRQAPGKERELGAAISRSGTRTYYADSVKGRFTFSRDNAKNTVYLQMNSLKPEDTAVYYCATVVILIYDYWGQGTQVSVSS",
    "parameter.measured": "polyreactivity (PSR sort gate)",
    "reported": "low polyreactivity"
  },
  {
    "sequence.string": "QVQLVESGGGLVQAGGSLRLSCAASGSTFIQYAMGWYRQAPGKERELVATIRWIGGSTYYADSVKGRFTISRDNAKNTVYLQMNSLKPEDTAVYYCAAGYEYVENGVDWYEYDYWGQGTQVTVSS",
    "parameter.measured": "polyreactivity (PSR sort gate)",
    "reported": "low polyreactivity"
  },
  {
    "sequence.string": "QVQLVESGGGLVQAGGSLRLSCAASGGMGWYRQAPGKERELVATISSVGSTNYADSVKGRFTISRDNAKNTVYLQMNSLKPEDTAVYYCNATGVQYFLYGYWGQGTQVTVSS",
    "parameter.measured": "polyreactivity (PSR sort gate)",
    "reported": "low polyreactivity"
  }
]

Now examine the next entry.
IN: Any idea what polyreactivity (PSR sort gate) was measured for `QVQLVESGGGLVQAGGSLRLSCAASGFIFGVNAMGWYRQAPGKERELVAAITSTGGRTYYADSVKGRFTISRDNAKNTVYLQMNSLKPEDTAVYYCNKRYRDQYGYDYWGQGTQVTVSS` ?
OUT: high polyreactivity
